# credit: the nanobody polyreactivity screen of Harvey et al. (2022)

test: yeast display, Sf9 membrane polyspecificity reagent, FACS + sequencing; frameworks hold sequencing errors
METRIC NAME: polyreactivity (PSR sort gate)

Study these solved cases before continuing.
QVQLVESGGGLVQAGGSLRLSCAASGFTFLWNAMGWYRQAPGKERELVAAINGNSGNTYYADSVKGRFTISRDNAKNTVYLQMNSLKPEDTAVYYCARRGGVRGYYGGRRSKMDYWGQGTQVTVSS	low polyreactivity
QVQLVESGGGLVQAGGSLRLSCAASGFIFDAYALGWYRQAPGKERELVAAITRGNTYYADSVKGRFTISRDNAKNTVYLQMNSLKPEDTAVYYCAARYWQSYRSQVTHSSTLDYWGQGTQVTVSS	low polyreactivity
QVQLVESGGGLVQAGGSLRLSCAASGSIFTFYAMGWYRQAPGKEREVVARITNGGNTNYADSGKGRFTISRDNAKNTVYLQMNSLKPEDTEVYYCAARWYWGWTRGDYWGQRTQVTVSS	high polyreactivity
QVQLVESGGGLVQAGGSLRLSCAASGSTFSKNAMGWYRQAPGKERELVASISTDGDSTYYADSVKGRFTISRDNAKNTVYFQMNSLKPEDTAVYYCNVVYYGRTWVPYVWEYDYWGQGTQVTVSS	low polyreactivity
QVQLVESGGGLVQAGGSLRLSCAASGFTIIRYAMGWYRPAPGKERELVATITRRGGSTYYADSVKGRFTISRDNAKNTVYLQMNSLKPEDTAVYYCAARIRPLYANVRYGYWGQGTQVTVSS	high polyreactivity

Ask | Fill in the blank: the reported polyreactivity (PSR sort gate) of QVQLVESGGGLVQARGSLRLSCAASGRTFGLYAMGWYIQAPGKEWELVAAITSGGSTYYADSVKGRFTISRDNAKYTVYLQMNSLTPEDTAVYFCDAEHDYLAQFEYDYWGPGTQVTVSS is ____.
Reply | low polyreactivity

Ask | Fill in the blank: the reported polyreactivity (PSR sort gate) of QDQLVESRGGLVQAGGSLRLSCAASGGTFRVYAMGWFIQAPGKERELVAAISSGGSTNYADSVNGRFTISRDNSKNTVYLQMNSLKPEDTAVYYCAADRVGWSVYRGDYWGHGTQVTVSS is ____.
Reply | high polyreactivity

Ask | Fill in the blank: the reported polyreactivity (PSR sort gate) of QVQLVESGGGLVQAGGSLRLSCAASGFTLALNAMGWYRQAPGKERELVAVINSGGSTNYADSVKGRFTISRDNAKNTVYLQMNSLKPEDTAVYYYWGQGTQVTESS is ____.
Reply | low polyreactivity

----------
test: yeast display, Sf9 membrane polyspecificity reagent, FACS + sequencing; frameworks hold sequencing errors
METRIC NAME: polyreactivity (PSR sort gate)

Study these solved cases before continuing.
QVQLVESGGGLVQAGGRLRLSCAASGFKYAMGWYRQGPGKDRELVAAISSGGITSYADSVKGRFTISRDNAKNTVYLQMNSLKPEDTAVYYCNARLRHSQYAYYYWGQGTQVTVSS	high polyreactivity
QVQLEESVGGLVQAGGSLRLSCAASGRIFAAYAMGWYRQEPGKERELVAAITGSGGRTYYADSVKGRFTISRDNAKNTVYLQMNSLKPEDTAVYYCAAESTPYSSVDRVAVYYWGQGTQVTVSS	high polyreactivity
QVQLVESGGGLVQAGGSLRLSCAASGRTFYKYGMGWYRQAPGKERELVARINSNGGSTYYADSVKGRFTISRDNAKNTVYLQMNSLKPADTAVYYCARSYVRSYGYYYWGQGPQVTVSS	low polyreactivity
QVQLVESGGGLVQAGGSLRLSCAASGITFSTYAMGWYRQAPGKERELVAAITKSGGSTYYADSVKGRFTISRDNAKNTVYLQMNSLKPEDTAVYYCAAKGWIWNPYNYWGQGTQVTVSS	low polyreactivity

Here is the next item to consider.
Ask | Fill in the blank: the reported polyreactivity (PSR sort gate) of QVQLVESGGGIVQAGGSLRLSCAATGNTFRYYTMGWYRKAPGKERELVAAINYRGSRTYYADSVKGRFTISRDNAKNTVYLQINSLKPEDTAVYYCARAYNAGYRYRSDYWGQGTQVTVSS is ____.
Reply | high polyreactivity
